Tested on: HEK293
Assay Protocol: Cytotoxicity against HEK293 cells assessed as reduction in cell viability after 48 hrs by MTT assay
Format: cell-based
Settings: Homo sapiens, HEK293, 48 h
Measured Parameter: IC50

INSERT INTO measurements (query_smiles, recorded_result) VALUES
  ('CN(c1ccc(NC(=O)c2cc(C(F)(F)F)cc(C(F)(F)F)c2)cc1OCc1cccc(C(F)(F)F)c1)S(=O)(=O)Cc1ccccc1', '59.8 µM'),
  ('CN(c1ccc(NC(=O)c2cc(C(F)(F)F)cc(C(F)(F)F)c2)cc1OCc1ccccc1C(F)(F)F)S(=O)(=O)Cc1ccccc1', '> 500 µM'),
  ('Cc1ccc(C(F)(F)F)cc1COc1cc(NC(=O)c2ccc(C(F)(F)F)cc2C(F)(F)F)ccc1N(C)S(C)(=O)=O', '102 µM'),
  ('CCCCCCOc1cc(NC(=O)c2ccc(C(F)(F)F)cc2C(F)(F)F)ccc1N(C)S(C)(=O)=O', '> 500 µM'),
  ('CCCCCCOc1cc(NC(=O)c2cc(C(F)(F)F)cc(C(F)(F)F)c2)ccc1N(C)S(C)(=O)=O', '> 500 µM'),
  ('CN(c1ccc(NC(=O)c2cc(C(F)(F)F)cc(C(F)(F)F)c2)cc1OCc1ccccc1C(F)(F)F)S(C)(=O)=O', '> 500 µM'),
  ('Cc1ccc(C)c(COc2cc(Nc3nccc(N)n3)ccc2N(C)S(C)(=O)=O)c1', '> 500 µM');

Incoming: Item under review: CCS(=O)(=O)N(C)c1ccc(NC(=O)c2ccc3c(c2)OCO3)cc1OCc1cccc(C#N)c1 . Reported IC50?
Outgoing: > 500 µM

====

System: HEK293
Assay Protocol: Cytotoxicity against HEK293 cells assessed as reduction in cell viability after 48 hrs by MTT assay
Assay type: cell-based
Settings: Homo sapiens, HEK293, 48 h
pIC50: −log10 of the molar value.
Exercise: for every item that follows, state its recorded pIC50.

A selection of reference data follows.
INSERT INTO assay_data (query_smiles, measured_parameter, recorded_result) VALUES
  ('Cc1ccc(C(F)(F)F)cc1COc1cc(NC(=O)c2cc(C(F)(F)F)cc(C(F)(F)F)c2)ccc1N(C)S(C)(=O)=O', 'pIC50', '< 3.30'),
  ('CN(c1ccc(NC(=O)c2ccc(C(F)(F)F)cc2C(F)(F)F)cc1OCc1ccccc1C(F)(F)F)S(C)(=O)=O', 'pIC50', 4.46),
  ('CN(c1ccc(NC(=O)c2cc(C(F)(F)F)cc(C(F)(F)F)c2)cc1OCc1cccc(C(F)(F)F)c1)S(C)(=O)=O', 'pIC50', 4.27),
  ('CN(c1ccc(NC(=O)c2cc(C(F)(F)F)cc(C(F)(F)F)c2)cc1OCc1cccc(C(=N)N)c1)S(C)(=O)=O', 'pIC50', '< 3.30');

Please go through the list and note pIC50 for each compound.
1. CN(c1ccc(NC(=O)c2ccc(C(F)(F)F)cc2C(F)(F)F)cc1OCc1ccccc1C(F)(F)F)S(=O)(=O)Cc1ccccc1
2. CN(c1ccc(NC(=O)c2ccc(C#N)cc2)cc1OCc1ccc(C(F)(F)F)cc1)S(=O)(=O)Cc1ccccc1

Outgoing:
["< 3.30", "< 3.30"]
